// data source = PubChem BioAssay (Tox21)

assay: cAMP Responsive Elements (CRE) small molecule agonists, cell-based qHTS assay: qHTS cell viability counter screen (AID 2060914); details: CRE-bla HEK293T viability, CellTiter-Glo luminescence, 5 h; series mostly up to 92.4 µM; also: potency is read from the fitted curve at half-maximal effect;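 also: viability read after 3 h of compound exposure; nearly all actives have a fitted effect of over 50% in size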
Results filed as inconclusive are left out. Activity calls are given as the source filed them. Calls follow the shape of the dose curve; as a rule, active = well fitted cell-killing curve with a large enough effect in the repeat runs; inconclusive = weak or mixed curves, or effect the other way; inactive = flat fitted curve, though single readings scatter.
Measure: Potency

These recorded examples may help you get a feel for the data.
# Compound, Result
rows = [
    ("C=C(C)C(=O)OCC(CC)CCCC (stereo unspecified)", "inactive"),
    ("ClCc1ccccc1", "inactive"),
    ("COC(=O)N(OC)c1ccccc1COc1ccn(-c2ccc(Cl)cc2)n1", "5.45 µM (active)"),
    ("Nc1ccc(Oc2ccc(N)cc2)cc1", "inactive"),
    ("O=[N+]([O-])c1ccccc1O", "inactive"),
    ("CCN(CC)C(C)C(=O)c1ccccc1 (stereo unspecified)", "inactive"),
]

Potency recorded for this compound, CC(Oc1ccc(Cl)cc1Cl)C(=O)O (stereo unspecified) , is inactive

Potency recorded for this compound, COP(=S)(NC(C)C)Oc1ccc(C)cc1[N+](=O)[O-] (stereo unspecified) , is inactive

Potency recorded for this compound, CCCCCCCCSC(=O)Oc1cc(Cl)nnc1-c1ccccc1 , is inactive

Potency recorded for this compound, N#CCCCCC#N , is inactive

---

experiment: cAMP Responsive Elements (CRE) small molecule agonists, cell-based qHTS assay: qHTS cell viability counter screen (AID 2060914); conditions: CRE-bla HEK293T viability, CellTiter-Glo luminescence, 5 h; series mostly up to 92.4 µM;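 also: viability read after 3 h of compound exposure; nearly all actives have a fitted effect of over 50% in size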
Records with an inconclusive call do not appear. Calls of active or inactive are those of the source. Calls come from the whole dose curve; as a rule, active = well fitted cell-killing curve with a large enough effect in the repeat runs; inconclusive = weak or mixed curves, or effect the other way; inactive = flat fitted curve, though single readings scatter.
Select the correct class. Options are active, inactive and nothing else.

Some solved entries appear below for comparison.
# Chem Smiles, Qualitative Label
records = [
    ("Cc1ccc2c(C)cccc2c1", "inactive"),
    ("CC(Cl)(Cl)C(=O)O", "inactive"),
    ("N#CCCC#N", "inactive"),
    ("CCCCCCCCOC(=O)c1ccc(C(=O)OCCCCCCCC)c(C(=O)OCCCCCCCC)c1", "inactive"),
    ("c1ccc2c(c1)Oc1ccccc1O2", "inactive"),
]

Prompt: Call for entry CCC(C)(CC)c1cc(NC(=O)c2c(OC)cccc2OC)on1 :
Completion: inactive

Prompt: Call for entry CN(C)C(=O)Nc1cccc(OC(=O)NC(C)(C)C)c1 :
Completion: inactive

Prompt: Call for entry COc1cc(OC)nc(NC(=O)NS(=O)(=O)c2ncccc2OCC(F)(F)F)n1 :
Completion: inactive

Prompt: Call for entry CCCCCC[N+](=O)[O-] :
Completion: inactive

Prompt: Call for entry Nc1ccc(N=Nc2ccccc2)cc1 :
Completion: inactive

Prompt: Call for entry Cc1ccc([N+](=O)[O-])[c]2c1[O][Hg]2 :
Completion: active

Prompt: Call for entry CCc1ccccc1N :
Completion: inactive

---

assay: cAMP Responsive Elements (CRE) small molecule agonists, cell-based qHTS assay: qHTS cell viability counter screen (AID 2060914); details: CRE-bla HEK293T viability, CellTiter-Glo luminescence, 5 h; series mostly up to 92.4 µM;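 also: viability read after 3 h of compound exposure; nearly all actives have a fitted effect of over 50% in size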
Results filed as inconclusive are left out. The source made the active and inactive calls. Calls come from the whole dose curve; as a rule, active = well fitted cell-killing curve with a large enough effect in the repeat runs; inconclusive = weak or mixed curves, or effect the other way; inactive = flat fitted curve, though single readings scatter.
Select the correct class. Options are true (1) (active), false (0) (inactive) and nothing else.

# Compound, Qualitative Label
rows = [
    ("Cc1ccc2cc3c(ccc4ccccc43)c3c2c1CC3", "false (0)"),
]

Prompt: Call for entry CCc1cc2c(s1)-n1c(C)nnc1CN=C2c1ccccc1Cl :
Completion: false (0)

Prompt: Call for entry C[C@]12Cc3cn[nH]c3C[C@@H]1CC[C@@H]1[C@@H]2CC[C@@]2(C)[C@H]1CC[C@]2(C)O :
Completion: false (0)

Prompt: Call for entry Cc1cc(C(F)(C(F)(F)F)C(F)(F)F)ccc1NC(=O)c1cccc(I)c1C(=O)NC(C)(C)CS(C)(=O)=O :
Completion: false (0)

---

Test: cAMP Responsive Elements (CRE) small molecule agonists, cell-based qHTS assay: qHTS cell viability counter screen (AID 2060914);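 also: viability read after 3 h of compound exposure; nearly all actives have a fitted effect of over 50% in size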
Conditions: CRE-bla HEK293T viability, CellTiter-Glo luminescence, 5 h; series mostly up to 92.4 µM
Description: National Center for Advancing Translational Sciences [NCATS] Division of Preclinical Innovation [DPI] U.S. Environmental Protection Agency [EPA] National Institutes of Environmental Health Sciences [NIEHS] National Toxicology Program [NTP] U.S. Food and Drug Administration [FDA] CREB (cyclic-AMP Responsive Element Binding Protein) is a cellular transcription factor. […] The activation of the report gene under culture conditions can be detected by fluorescence intensity. […]
Inconclusive results are not listed. Activity calls are given as the source filed them. The call rests on the fitted dose curve; in most records, active means well fitted cell-killing curve with a large enough effect in the repeat runs; inconclusive means weak or mixed curves, or effect the other way; inactive means flat fitted curve, though single readings scatter.
Measure: outcome

# Compound, Measure, Result
measured = [
    ("[Cl][Sb]([Cl])[Cl]", "outcome", "inactive"),
    ("N#CS", "outcome", "inactive"),
    ("COc1cc(CC(C)N)c(OC)cc1Br (stereo not drawn)", "outcome", "inactive"),
]

---

assay: cAMP Responsive Elements (CRE) small molecule antagonists, cell-based qHTS assay: qHTS cell viability counter screen (AID 2060913); conditions: CRE-bla HEK293T viability, CellTiter-Glo luminescence, 5 h; series mostly up to 92.4 µM; also: nearly all actives have a fitted effect of over 40% in size
Inconclusive results are not listed. Active and inactive are the calls of the source. The call rests on the fitted dose curve; in most records, active means well fitted cell-killing curve with a large enough effect in the repeat runs; inconclusive means weak or mixed curves, or effect the other way; inactive means flat fitted curve, though single readings scatter.
Select the correct class. Options are active, inactive and nothing else.

# Compound, Qualitative Label
rows = [
    ("C[C@]12CC[C@@H](O)C[C@@H]1CC[C@@H]1[C@@H]2CC[C@]2(C)C(=O)CC[C@@H]12", "inactive"),
    ("CCSCc1ccccc1OC(=O)NC", "inactive"),
    ("C[N+](C)(C)Cc1ccccc1", "inactive"),
    ("C[C@@H]1CN(C2CCC(C#N)(c3ccc(F)cc3)CC2)CC[C@]1(C(=O)O)c1ccccc1 (stereo not given in full)", "inactive"),
    ("c1ccc2c(c1)oc1ccccc12", "inactive"),
]

Prompt: Call for entry O=C(O)CCCOc1ccc(Cl)cc1Cl :
Completion: inactive

Prompt: Call for entry CCOP(=O)(N=C1SCCS1)OCC :
Completion: inactive

Prompt: Call for entry BrCC(Br)c1ccccc1 (stereo not given) :
Completion: inactive

Prompt: Call for entry N#CN=C1SCCN1Cc1ccc(Cl)nc1 :
Completion: inactive

Prompt: Call for entry COc1cc(-c2ccc(N)c(OC)c2)ccc1N :
Completion: inactive

Prompt: Call for entry N#CCCCCC#N :
Completion: inactive

Prompt: Call for entry CC[n+]1c(-c2ccccc2)c2cc(N)ccc2c2ccc(N)cc21 :
Completion: inactive

Prompt: Call for entry COP(=S)(Oc1cc(Cl)c(Br)cc1Cl)c1ccccc1 (stereo not given) :
Completion: inactive

Prompt: Call for entry O=[N+]([O-])c1cc(Cl)c(Cl)c(Cl)c1 :
Completion: inactive

Prompt: Call for entry CC(C)c1c(CN(C)C(C)Cc2ccccc2)n(C)n(-c2ccccc2)c1=O (stereo not given) :
Completion: inactive

Prompt: Call for entry Clc1ccccc1-c1nnc(-c2ccccc2Cl)nn1 :
Completion: inactive

Prompt: Call for entry Cc1ccc(N)cc1Cl :
Completion: inactive

Prompt: Call for entry CCC(C)(C#N)N=NC(C)(C#N)CC (stereo not given) :
Completion: inactive

Prompt: Call for entry CSC1=N[C@@](C)(c2ccccc2)C(=O)N1Nc1ccccc1 :
Completion: inactive

Prompt: Call for entry CN(C)C(=O)Nc1cccc(OC(=O)NC(C)(C)C)c1 :
Completion: inactive

Prompt: Call for entry ClSC(Cl)(Cl)Cl :
Completion: inactive

Prompt: Call for entry ClC(Cl)Br :
Completion: inactive

Prompt: Call for entry CC(Oc1cc(Cl)c(Cl)cc1Cl)C(=O)O (stereo not given) :
Completion: inactive

Prompt: Call for entry CC(Cc1ccc(O)cc1)NCC(O)c1cc(O)cc(O)c1 (stereo not given) :
Completion: inactive

Prompt: Call for entry CC(C)(c1ccc(OCC2CO2)cc1)c1ccc(OCC2CO2)cc1 (stereo not given) :
Completion: inactive

Prompt: Call for entry N#CC1(N=NC2(C#N)CCCCC2)CCCCC1 :
Completion: inactive

Prompt: Call for entry O=NN1CCNCC1 :
Completion: inactive

Prompt: Call for entry C[C@]12CCC(=O)C=C1CC[C@@H]1[C@@H]2CC[C@]2(C)C(=O)CC[C@@H]12 :
Completion: inactive

Prompt: Call for entry C[C@H](N)C(=O)c1ccccc1 :
Completion: inactive

Prompt: Call for entry CCc1cccc(C)c1N(C(=O)CCl)C(C)COC (stereo not given) :
Completion: inactive

Prompt: Call for entry CNC(=O)O/N=C/C(C)(C)S(C)=O (stereo not given) :
Completion: inactive

---

assay: cAMP Responsive Elements (CRE) small molecule antagonists, cell-based qHTS assay: qHTS cell viability counter screen (AID 2060913); details: CRE-bla HEK293T viability, CellTiter-Glo luminescence, 5 h; series mostly up to 92.4 µM; also: nearly all actives have a fitted effect of over 40% in size
Results filed as inconclusive are left out. The source made the active and inactive calls. Calls follow the shape of the dose curve; as a rule, active = well fitted cell-killing curve with a large enough effect in the repeat runs; inconclusive = weak or mixed curves, or effect the other way; inactive = flat fitted curve, though single readings scatter.
Select the correct class. Options are class 1 = active, class 0 = inactive and nothing else.

# Molecule, Qualitative Label
records = [
    ("CCCCc1c(C)nc(NCC)nc1OS(=O)(=O)N(C)C", "class 0"),
    ("C[C@@H]1CC[C@@]2(OC1)O[C@H]1[C@@H](O)[C@H]3[C@@H]4CC[C@H]5C[C@@H](O[C@@H]6O[C@H](CO)[C@H](O[C@@H]7O[C@H](CO)[C@@H](O)[C@H](O[C@@H]8OC[C@@H](O)[C@H](O)[C@H]8O)[C@H]7O[C@@H]7O[C@H](CO)[C@@H](O)[C@H](O[C@@H]8O[C@H](CO)[C@@H](O)[C@H](O)[C@H]8O)[C@H]7O)[C@H](O)[C@H]6O)[C@H](O)C[C@]5(C)[C@H]4CC[C@]3(C)[C@H]1[C@@H]2C", "class 1"),
    ("CCC[N+]1(C)CCCCC1", "class 0"),
    ("CCN[C@H](C)Cc1cccc(C(F)(F)F)c1", "class 0"),
    ("CCOP(=O)(O)C(N)=O", "class 0"),
    ("CCOC(=O)C(Cl)C(C)=O (stereo not given)", "class 0"),
    ("O=Cc1ccccc1", "class 0"),
    ("c1ccc2c(c1)CCCC2", "class 0"),
]

Prompt: Call for entry CC(C)[C@@H](Nc1ccc(C(F)(F)F)cc1Cl)C(=O)OC(C#N)c1cccc(Oc2ccccc2)c1 (stereo not given in full) :
Completion: class 0
